B1: ALKBH7 (parent)
chain: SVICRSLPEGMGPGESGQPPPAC

variants of: B1; assay: protein stability index of a GFP-peptide fusion (GPS, HEK-293T) (PSI 1-6); higher = more stable; conditions: c terminus: native;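 note: lentivirally expressed fusions sorted by FACS into six bins by GFP to DsRed ratio, PSI derived from sequencing read proportions per bin multiplied by bin number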
VALUE KIND: protein stability index

> print(dat)
    mutation.string  experimental.value
 1             G12M                2.68
 2             M11E                3.08
 3              I3A                2.19
 4             M11S                2.23
 5              I3F                1.66
 6              R5K                2.32
 7              I3H                3.61
 8              L7M                1.67
 9             Q18R                   2
10              S6R                1.95
11             M11L                1.99
12             A22L                 4.3
13             G10N                 1.5
14              S1G                2.23
15              I3P                 2.4
16              S6Q                2.08
17              L7I                2.36
18             P21S                4.08
19              I3E                2.88
20              P8E                2.46
21              S6M                1.68
22              S6D                2.54
23             P13F                1.55
24             M11A                2.37
25             P20I                3.72
26             E15Q                1.16
27             P20H                3.78
28              S1P                2.23
29              C4Y                1.47
30              P8V                1.42
31              L7D                2.98
32             G14D                2.25
33             G10E                1.91
34             C23N                5.35
35             C23I                5.17
36             P13L                1.39
37             G12L                1.85
38             P13C                1.92
39             P20C                2.42
40              E9Y                1.85
41             P13S                2.35
42              E9Q                1.83
43             G12R                1.82
44              S1R                1.39
45             G10M                3.27
46             P21C                2.17
